All values here come from patent US20220177596A1.

# Target Of Assay: T1, human-CD40 monomer (human, UniProt P25942 21-193, limits assumed)
# T1 construct: also called hCD40-monomer; human-CD40-monomer protein
# T1 sequence (P25942 21-193 limits assumed): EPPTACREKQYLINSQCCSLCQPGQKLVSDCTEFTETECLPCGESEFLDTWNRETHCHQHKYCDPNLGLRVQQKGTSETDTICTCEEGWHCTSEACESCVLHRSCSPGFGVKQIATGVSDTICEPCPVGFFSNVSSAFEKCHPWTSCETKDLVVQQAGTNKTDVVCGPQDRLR
# Test Summary: SPR 2 pt screen, Ab on protein A
Property Name: pKd
Hey, just a heads up that pKd is the negative log base 10 of the concentration in molar.

I would be grateful if you could share the reported pKd for humanized Y1238 hz7 (hz-HC2 / hz-LC2), IgG1.3f (antibody, V domains shown, IgG1.3f heavy constant, common CL; expression supernatant; also called Sup 7) VH: QVQLVQSGAEVKKPGASVKVSCKASGYAFTNYLIEWVRQAPGQGLEWMGVINPGSGGTNYNEKFKGRVTMTADTSISTAYMELSRLRSDDTAVYYCARSQLGRRFDYWGQGTLVTVSS VL: DIQMTQSPSSLSASVGDRVTITCKASQDVRTGVAWYQQKPGKAPKLLIYSASYRNTGVPSRFSGSRSGTDFTFTISSLQPEDIATYYCQQHYSPPYTFGGGTKVEIK .
8.57

Now the same for humanized Y1238 hz5 (hz-HC1 / hz-LC5), IgG1.3f (antibody, V domains shown, IgG1.3f heavy constant, common CL; expression supernatant; also called Sup 5) VH: QVQLVQSGAEVKKPGASVKVSCKASGYAFTNYLIEWVRQAPGQGLEWMGVINPGSGGTNYNEKFKGRVTMTRDTSISTAYMELSRLRSDDTAVYYCARSQLGRRFDYWGQGTLVTVSS VL: DIQMTQSPSSLSASVGDRVTITCKASQDVRTGVAWYQQKPGQAPKLLIYSASYRNTGVPSRFSGSRSGTDFTFTISSLQPEDIAVYYCQQHYSPPYTFGGGTKVEIK
7.96

Now the same for humanized Y1238 hz30 (hz-HC6 / hz-LC5), IgG1.3f (antibody, V domains shown, IgG1.3f heavy constant, common CL; expression supernatant; also called Sup 30) VH: QVQLVQSGAEVKKPGASVKVSCKASGYAFTNYLIEWVRQRPGQGLEWMGVINPGSGGTNYNEKFKGRVTLTADKSISTAYMELSRLRSDDTAVYYCARSQLGRRFDYWGQGTLVTVSS VL: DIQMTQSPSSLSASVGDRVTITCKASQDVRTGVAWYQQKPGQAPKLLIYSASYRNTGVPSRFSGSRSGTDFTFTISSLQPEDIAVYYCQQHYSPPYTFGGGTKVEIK
8.11
